The reported measurements were obtained from ChEMBL document CHEMBL1782028.

Items are presented alongside their recorded Ratio EC50.
- assay summary: Selectivity ratio, ratio of EC50 for alpha3beta4* nAChR in mouse to EC50 for alpha6beta2*nAChR in mouse
Number only, please.

Answered examples (3):
# compound, Ratio EC50
records = [
    ("C(#C[C@H]1CCCN1)c1cncnc1.O=C(O)[C@@H](O)[C@H](O)[C@H](O)[C@@H](O)C(=O)O", 28),
    ("CN1C2C=C(c3cncnc3)CC1CC2.O=C(O)C(F)(F)F (centres undefined)", 410),
    ("C(#C[C@H]1CCCN1)c1cccnc1.O=C(O)[C@@H](O)[C@H](O)[C@H](O)[C@@H](O)C(=O)O", 8),
]

Would you kindly look at the next entry?
Challenge: Entry under review: C(=C\[C@@H]1CCNC1)/c1cncnc1.O=C(O)[C@@H](O)[C@H](O)[C@H](O)[C@@H](O)C(=O)O . Reported Ratio EC50?
Response given: 304

---

Each entry below lists one item and its recorded Emax value.
- system under test: Neuronal acetylcholine receptor subunit alpha-4/alpha-6/beta-2/beta-3 (Mus musculus) (UniProt Q9ERK7+O70174+Q9R0W9+Q8BMN3)
- assay summary: Activity at alpha6alpha4beta3beta2 nAChR in mouse striatal synaptosomes assessed as alpha-conotoxic […] DA release relative to control
- Type: subcellular
- particulars: Brain
Param answer (str): number followed by unit.

# compound, Emax
records = [
    ("C(#C[C@H]1CCCN1)c1cccnc1.O=C(O)[C@@H](O)[C@H](O)[C@H](O)[C@@H](O)C(=O)O", "42%"),
]

Challenge: // query Emax value for entry O=C(O)C(F)(F)F.c1ncc(C2CC3CCN2CC3)cn1 (centres undefined)
Response given: 104%

Challenge: Repeat with CN1C2C=C(c3cccnc3)CC1CC2.Cl.Cl (centres undefined)
Response given: 50%

Challenge: What would you report for CN1C2C=C(c3cncnc3)CC1CC2.O=C(O)C(F)(F)F (centres undefined) ?
Response given: 77%

---

- system under test: Nicotinic acetylcholine receptor alpha-4/beta-2 (Mus musculus, UniProt Q8R493+Q9ERK7)
- assay summary: Activity at alpha4beta2*nAChR in mouse striatal synaptosomes assessed as alpha-conotoxic MII-resistant DA release
# maps each entry to its EC50
Please state the number and follow it with the unit.

Observe how each entry below is paired with its result.
# compound, system under test, EC50
data = [
    ("C(=C\\[C@@H]1CCNC1)/c1cncnc1.O=C(O)[C@@H](O)[C@H](O)[C@H](O)[C@@H](O)C(=O)O", "Nicotinic acetylcholine receptor alpha-4/beta-2 (Mus musculus, UniProt Q8R493+Q9ERK7)", "19 µM"),
    ("CN1C2C=C(c3cccnc3)CC1CC2.Cl.Cl (stereo not given)", "Nicotinic acetylcholine receptor alpha-4/beta-2 (Mus musculus, UniProt Q8R493+Q9ERK7)", "3.4 µM"),
    ("C(=C\\[C@@H]1CCNC1)/c1cccnc1.O=C(O)C(F)(F)F", "Nicotinic acetylcholine receptor alpha-4/beta-2 (Mus musculus, UniProt Q8R493+Q9ERK7)", "4.4 µM"),
    ("CNCC/C=C/c1cncnc1.O=C(O)[C@@H](O)[C@H](O)[C@H](O)[C@@H](O)C(=O)O", "Nicotinic acetylcholine receptor alpha-4/beta-2 (Mus musculus, UniProt Q8R493+Q9ERK7)", "5.9 µM"),
]

Challenge: Given the entry C(#C[C@H]1CCCN1)c1cncnc1 , report its measured EC50.
Response given: 3.2 µM

---

- system under test: Neuronal acetylcholine receptor subunit alpha-7 (Mus musculus, UniProt P49582)
- Sequence (P49582 whole entry): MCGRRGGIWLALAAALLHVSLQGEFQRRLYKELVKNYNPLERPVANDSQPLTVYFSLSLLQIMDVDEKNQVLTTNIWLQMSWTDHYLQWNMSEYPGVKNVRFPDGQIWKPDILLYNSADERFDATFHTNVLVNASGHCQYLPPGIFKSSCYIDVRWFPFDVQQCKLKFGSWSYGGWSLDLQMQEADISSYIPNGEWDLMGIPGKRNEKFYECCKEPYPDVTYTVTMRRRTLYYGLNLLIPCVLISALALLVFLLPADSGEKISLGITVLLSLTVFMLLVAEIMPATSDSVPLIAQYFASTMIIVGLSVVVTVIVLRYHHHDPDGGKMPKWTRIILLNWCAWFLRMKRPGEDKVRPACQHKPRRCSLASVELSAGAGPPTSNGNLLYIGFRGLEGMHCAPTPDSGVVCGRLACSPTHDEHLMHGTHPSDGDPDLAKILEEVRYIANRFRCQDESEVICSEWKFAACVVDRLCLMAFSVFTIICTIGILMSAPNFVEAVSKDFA
- assay summary: Displacement of [125I]alpha-bungarotoxin from alpha7 nAChR in C57BL/6J mouse hippocampal membrane
Each entry below lists one item and its recorded log10 Ki value.
Kindly note that the scale is log10 and the underlying Ki is in µM.

# compound, outcome measure, recorded result
measured = [
    ("C(#C[C@H]1CCCN1)c1cccnc1.O=C(O)[C@@H](O)[C@H](O)[C@H](O)[C@@H](O)C(=O)O", "log10 Ki", -0.13),
    ("CN1C2C=C(c3cccnc3)CC1CC2.Cl.Cl (stereo not given)", "log10 Ki", 0.32),
    ("C(#C[C@H]1CCCN1)c1cncnc1", "log10 Ki", 0.76),
    ("CN1C2C=C(c3cncnc3)CC1CC2.O=C(O)C(F)(F)F (stereo not given)", "log10 Ki", 0.96),
    ("C(=C\\[C@@H]1CCNC1)/c1cccnc1.O=C(O)C(F)(F)F", "log10 Ki", 0.50),
    ("O=C(O)C(F)(F)F.c1ncc(CC2CC3CCN2CC3)cn1 (stereo not given)", "log10 Ki", 0.41),
]

Consider the record given below.
Challenge: log10 Ki lookup needed for O=C(O)C(F)(F)F.c1ncc(C2CC3CCN2CC3)cn1 (stereo not given) , thanks.
Response given: 0.04

---

- system under test: Neuronal acetylcholine receptor subunit alpha-4/alpha-6/beta-2/beta-3 (Mus musculus, UniProt O70174+Q8BMN3+Q9ERK7+Q9R0W9)
- Sequence (Q9ERK7 whole entry): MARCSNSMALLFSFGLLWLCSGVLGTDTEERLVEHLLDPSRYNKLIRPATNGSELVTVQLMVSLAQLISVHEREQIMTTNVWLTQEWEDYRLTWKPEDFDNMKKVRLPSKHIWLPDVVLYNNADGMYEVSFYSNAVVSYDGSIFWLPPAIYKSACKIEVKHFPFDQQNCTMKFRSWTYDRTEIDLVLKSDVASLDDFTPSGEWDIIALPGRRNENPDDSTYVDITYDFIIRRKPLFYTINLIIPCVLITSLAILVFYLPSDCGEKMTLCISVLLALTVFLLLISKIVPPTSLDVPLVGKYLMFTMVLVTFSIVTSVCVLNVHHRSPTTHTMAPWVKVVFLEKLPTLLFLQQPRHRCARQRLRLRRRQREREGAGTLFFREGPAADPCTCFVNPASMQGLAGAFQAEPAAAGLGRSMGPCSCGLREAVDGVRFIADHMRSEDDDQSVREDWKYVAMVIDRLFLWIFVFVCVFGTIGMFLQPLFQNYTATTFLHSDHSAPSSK
- Sequence (O70174 whole entry): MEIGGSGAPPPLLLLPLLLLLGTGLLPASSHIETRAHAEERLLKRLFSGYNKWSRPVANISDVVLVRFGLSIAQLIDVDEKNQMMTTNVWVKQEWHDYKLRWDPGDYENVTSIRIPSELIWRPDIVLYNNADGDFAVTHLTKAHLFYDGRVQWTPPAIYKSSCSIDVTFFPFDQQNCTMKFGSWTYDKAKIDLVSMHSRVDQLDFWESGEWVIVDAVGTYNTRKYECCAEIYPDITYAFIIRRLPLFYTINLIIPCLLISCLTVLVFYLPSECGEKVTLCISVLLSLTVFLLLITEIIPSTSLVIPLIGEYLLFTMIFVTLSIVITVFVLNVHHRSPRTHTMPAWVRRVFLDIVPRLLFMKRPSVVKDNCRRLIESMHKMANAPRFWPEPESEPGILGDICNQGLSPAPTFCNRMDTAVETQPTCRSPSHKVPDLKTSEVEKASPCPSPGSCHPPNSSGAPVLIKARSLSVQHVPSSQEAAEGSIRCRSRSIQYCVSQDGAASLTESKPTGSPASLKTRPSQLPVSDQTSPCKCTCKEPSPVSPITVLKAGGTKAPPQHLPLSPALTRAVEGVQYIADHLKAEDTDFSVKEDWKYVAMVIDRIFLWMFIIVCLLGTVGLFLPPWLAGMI
- Sequence (Q9R0W9 whole entry): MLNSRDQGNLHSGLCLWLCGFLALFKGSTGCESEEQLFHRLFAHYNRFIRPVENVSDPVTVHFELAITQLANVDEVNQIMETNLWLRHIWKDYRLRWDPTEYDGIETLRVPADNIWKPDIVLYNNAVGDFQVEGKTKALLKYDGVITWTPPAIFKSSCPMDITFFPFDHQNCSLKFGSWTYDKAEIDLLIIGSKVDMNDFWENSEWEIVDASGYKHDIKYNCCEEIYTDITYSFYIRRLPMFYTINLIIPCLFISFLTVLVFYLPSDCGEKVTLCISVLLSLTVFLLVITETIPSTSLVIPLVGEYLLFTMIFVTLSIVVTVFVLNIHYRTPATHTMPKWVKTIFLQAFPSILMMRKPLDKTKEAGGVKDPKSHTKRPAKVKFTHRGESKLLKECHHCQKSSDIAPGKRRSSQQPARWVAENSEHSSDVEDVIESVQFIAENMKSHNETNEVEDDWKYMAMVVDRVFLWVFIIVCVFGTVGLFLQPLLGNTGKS
- Sequence (Q8BMN3 whole entry): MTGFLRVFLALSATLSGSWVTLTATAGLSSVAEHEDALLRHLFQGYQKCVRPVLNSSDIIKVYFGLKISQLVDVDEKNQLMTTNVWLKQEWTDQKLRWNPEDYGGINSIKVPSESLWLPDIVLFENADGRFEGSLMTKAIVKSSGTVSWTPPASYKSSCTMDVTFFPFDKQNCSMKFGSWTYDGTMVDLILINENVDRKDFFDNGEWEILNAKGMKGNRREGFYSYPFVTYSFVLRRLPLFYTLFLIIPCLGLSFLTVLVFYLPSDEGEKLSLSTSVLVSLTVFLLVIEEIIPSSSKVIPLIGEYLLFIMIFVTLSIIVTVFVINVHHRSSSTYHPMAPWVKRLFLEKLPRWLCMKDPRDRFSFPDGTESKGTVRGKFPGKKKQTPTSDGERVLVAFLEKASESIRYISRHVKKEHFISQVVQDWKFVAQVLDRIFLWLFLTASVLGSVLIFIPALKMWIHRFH
- assay summary: Activity at alpha6alpha4beta3beta2 nAChR in mouse striatal synaptosomes assessed as alpha-conotoxic […] DA release
- Assay type: subcellular, Brain
I'd appreciate it if you marked entries t when EC50 is lower than 200 nM and f when it is not.

Completed entries (count: 6):
# molecule, class assignment
data = [
    ("C(#C[C@H]1CCCN1)c1cncnc1", "f"),
    ("C(=C\\[C@@H]1CCNC1)/c1cncnc1.O=C(O)[C@@H](O)[C@H](O)[C@H](O)[C@@H](O)C(=O)O", "f"),
    ("CNCC/C=C/c1cncnc1.O=C(O)[C@@H](O)[C@H](O)[C@H](O)[C@@H](O)C(=O)O", "f"),
    ("C(#C[C@H]1CCCN1)c1cccnc1.O=C(O)[C@@H](O)[C@H](O)[C@H](O)[C@@H](O)C(=O)O", "f"),
    ("CN1C2C=C(c3cncnc3)CC1CC2.O=C(O)C(F)(F)F (stereo not drawn)", "t"),
    ("O=C(O)C(F)(F)F.c1ncc(C2CC3CCN2CC3)cn1 (stereo not drawn)", "t"),
]

Challenge: Please indicate whether the reported EC50 of C(=C\[C@@H]1CCNC1)/c1cccnc1.O=C(O)C(F)(F)F is strictly below 200 nM.
Response given: f

---

- system under test: Neuronal acetylcholine receptor subunit alpha-6/beta-2 (Mus musculus, UniProt Q9ERK7+Q9R0W9)
- assay summary: Inhibition of mouse alpha6alpha4beta3beta2 nAChR
- Format: protein-complex assay
outcome measure: Ki
Dear colleague, please send the value followed by its unit.

Challenge: Consider the molecule shown here: O=C(O)C(F)(F)F.c1ncc(CC2CC3CCN2CC3)cn1 (stereo unspecified) What is its recorded Ki?
Response given: 2.5 µM

---

- system under test: Neuronal acetylcholine receptor subunit alpha-3/beta-4 (Mus musculus, UniProt Q8R493+Q8R4G9)
- Sequence (Q8R493 whole entry): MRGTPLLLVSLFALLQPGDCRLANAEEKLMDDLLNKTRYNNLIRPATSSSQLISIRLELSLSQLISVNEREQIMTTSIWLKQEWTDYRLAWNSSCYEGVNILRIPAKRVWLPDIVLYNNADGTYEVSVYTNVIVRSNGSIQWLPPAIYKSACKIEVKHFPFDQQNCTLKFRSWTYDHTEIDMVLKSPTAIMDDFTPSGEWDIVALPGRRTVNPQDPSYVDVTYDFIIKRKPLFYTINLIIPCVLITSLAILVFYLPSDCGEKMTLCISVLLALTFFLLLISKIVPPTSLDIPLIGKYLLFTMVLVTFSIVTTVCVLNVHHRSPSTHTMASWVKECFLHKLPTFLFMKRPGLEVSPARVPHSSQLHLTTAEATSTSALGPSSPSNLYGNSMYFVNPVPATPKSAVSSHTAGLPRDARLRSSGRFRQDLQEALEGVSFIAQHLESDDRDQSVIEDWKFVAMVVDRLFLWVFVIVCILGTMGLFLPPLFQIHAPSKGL
- Sequence (Q8R4G9 whole entry): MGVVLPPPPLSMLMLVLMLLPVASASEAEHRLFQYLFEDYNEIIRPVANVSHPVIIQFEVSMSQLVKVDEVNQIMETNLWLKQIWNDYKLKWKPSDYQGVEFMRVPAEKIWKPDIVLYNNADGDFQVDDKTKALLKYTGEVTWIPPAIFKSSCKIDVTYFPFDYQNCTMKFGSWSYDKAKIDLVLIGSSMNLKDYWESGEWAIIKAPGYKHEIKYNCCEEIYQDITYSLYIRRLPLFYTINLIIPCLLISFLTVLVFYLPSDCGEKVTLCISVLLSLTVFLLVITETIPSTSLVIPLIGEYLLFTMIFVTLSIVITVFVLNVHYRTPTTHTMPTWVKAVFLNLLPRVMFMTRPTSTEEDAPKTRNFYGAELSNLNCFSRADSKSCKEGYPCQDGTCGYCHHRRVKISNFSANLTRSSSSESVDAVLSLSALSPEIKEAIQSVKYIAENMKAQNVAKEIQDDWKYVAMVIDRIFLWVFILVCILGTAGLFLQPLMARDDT
- assay summary: Activity at alpha3beta4* nAChR in mouse interpeduncular nucleus assessed as [3H]ACh release by scintillation counting
- Assay type: tissue-based
Documented Emax across a set of compounds

Examples with answers:
# compound, recorded result
measured = [
    ("C(#C[C@H]1CCCN1)c1cccnc1.O=C(O)[C@@H](O)[C@H](O)[C@H](O)[C@@H](O)C(=O)O", "81%"),
    ("C(=C\\[C@@H]1CCNC1)/c1cccnc1.O=C(O)C(F)(F)F", "58%"),
    ("C(#C[C@H]1CCCN1)c1cncnc1", "74%"),
]

Challenge: Bench note: what Emax did O=C(O)C(F)(F)F.c1ncc(CC2CC3CCN2CC3)cn1 (stereo unspecified) show?
Response given: 106%

Challenge: Consider next the compound CN1C2C=C(c3cccnc3)CC1CC2.Cl.Cl (stereo unspecified) in the same way.
Response given: 71%

Challenge: Same for O=C(O)C(F)(F)F.c1ncc(C2CC3CCN2CC3)cn1 (stereo unspecified)
Response given: 95%

---

- system under test: Neuronal acetylcholine receptor subunit alpha-3/beta-4 (Mus musculus, UniProt Q8R493+Q8R4G9)
- assay summary: Activity at alpha3beta4* nAChR in mouse interpeduncular nucleus assessed as [3H]ACh release by scintillation counting relative to control
Collected EC50 values appear next to each entry.
Give the value, in units of µM, as a plain number.

Below, each entry is followed by its recorded EC50 result.
# molecule, EC50 / µM
measured = [
    ("CNCC/C=C/c1cccnc1.O=C(O)[C@@H](O)[C@H](O)[C@H](O)[C@@H](O)C(=O)O", 218),
    ("O=C(O)C(F)(F)F.c1ncc(CC2CC3CCN2CC3)cn1 (stereo not given)", 28),
    ("C(=C\\[C@@H]1CCNC1)/c1cncnc1.O=C(O)[C@@H](O)[C@H](O)[C@H](O)[C@@H](O)C(=O)O", 161),
]

Challenge: Using the record for CNCC/C=C/c1cncnc1.O=C(O)[C@@H](O)[C@H](O)[C@H](O)[C@@H](O)C(=O)O , report its EC50.
Response given: 9.5

Challenge: Cool, now CN1C2C=C(c3cccnc3)CC1CC2.Cl.Cl (stereo not given)
Response given: 21
